I'd appreciate it if you could supply mass density values for the items below.
Conditions: 353.15 K; 5000 kPa; Liquid
± gives the expanded uncertainty stated by the source.
A complete answer gives the number and then names the unit.

Solved cases below.
molecule: CCCCn1cc[n+](C)c1C.F[P-](F)(F)(F)(F)F [1-butyl-2,3-dimethylimidazolium hexafluorophosphate]
mass density: 1308.3 ± 3.9 kg/m3

molecule: CCCCCCn1cc[n+](C)c1.F[P-](F)(F)(F)(F)F [1-hexyl-3-methylimidazolium hexafluorophosphate]
mass density: 1251.2 ± 3.4 kg/m3

molecule: CCCCn1cc[n+](C)c1.F[B-](F)(F)F [1-butyl-3-methylimidazolium tetrafluoroborate]
mass density: 1164.1 ± 2.6 kg/m3

molecule: CCCCn1cc[n+](C)c1.O=S(=O)([O-])C(F)(F)F [1-butyl-3-methylimidazolium trifluoromethanesulfonate]
mass density: 1257.4 ± 1.8 kg/m3

molecule: CCCCCCCC[n+]1ccn(C)c1.F[B-](F)(F)F [1-methyl-3-octylimidazolium tetrafluoroborate]
mass density: 1067.6 ± 0.9 kg/m3

Moving on to another molecule below.
Query (molecule): CCCCCCCC[n+]1ccn(C)c1.F[P-](F)(F)(F)(F)F [1-octyl-3-methylimidazolium hexafluorophosphate] ; field requested: mass density
1197.1 ± 2.9 kg/m3

###

Conditions: 383.15 K; 10000 kPa; Liquid
Answer each item with its documented mass density.
Answers are plain numbers, in kg/m3.

compound: CCCCn1cc[n+](C)c1C.F[P-](F)(F)(F)(F)F [1-butyl-2,3-dimethylimidazolium hexafluorophosphate]
attribute measured: mass density
unit info: kg/m3
quantitative readout: 1289.7
--
compound: CCCCCCCC[n+]1ccn(C)c1.F[P-](F)(F)(F)(F)F [1-octyl-3-methylimidazolium hexafluorophosphate]
attribute measured: mass density
unit info: kg/m3
quantitative readout: 1179.8

Need mass density for each of these compounds.
1. CCCCCCn1cc[n+](C)c1.F[P-](F)(F)(F)(F)F [1-hexyl-3-methylimidazolium hexafluorophosphate]
2. CCCCn1cc[n+](C)c1.O=S(=O)([O-])C(F)(F)F [1-butyl-3-methylimidazolium trifluoromethanesulfonate]
3. CCCCCCCC[n+]1ccn(C)c1.F[B-](F)(F)F [1-methyl-3-octylimidazolium tetrafluoroborate]
4. CCCCn1cc[n+](C)c1.F[B-](F)(F)F [1-butyl-3-methylimidazolium tetrafluoroborate]

1: 1233.6; 2: 1239.7; 3: 1052.9; 4: 1147.6

###

Settings: 323.15 K; 2000 kPa; Liquid
attribute measured: mass density (kg/m3)
Answers are plain numbers, in kg/m3.

Use these answered entries as a reference point.
compound: CCCCn1cc[n+](C)c1.F[B-](F)(F)F [1-butyl-3-methylimidazolium tetrafluoroborate]
unit info: kg/m3
mass density: 1184
--
compound: CCCCCCn1cc[n+](C)c1.F[P-](F)(F)(F)(F)F [1-hexyl-3-methylimidazolium hexafluorophosphate]
unit info: kg/m3
mass density: 1273.9
--
compound: CCCCCCCC[n+]1ccn(C)c1.F[B-](F)(F)F [1-methyl-3-octylimidazolium tetrafluoroborate]
unit info: kg/m3
mass density: 1086.4
--
compound: CCCCn1cc[n+](C)c1C.F[P-](F)(F)(F)(F)F [1-butyl-2,3-dimethylimidazolium hexafluorophosphate]
unit info: kg/m3
mass density: 1331.9
--
compound: CCCCCCCC[n+]1ccn(C)c1.F[P-](F)(F)(F)(F)F [1-octyl-3-methylimidazolium hexafluorophosphate]
unit info: kg/m3
mass density: 1218.8

Switching to the query record.
So what does the record say about mass density for CCCCn1cc[n+](C)c1.O=S(=O)([O-])C(F)(F)F [1-butyl-3-methylimidazolium trifluoromethanesulfonate] ?
1280

###

Settings: 303.15 K; 4000 kPa; Liquid
Give mass density for every item shown.
Answers are plain numbers, in kg/m3.

Use these answered entries as a reference point.
molecule: CCCCn1cc[n+](C)c1.O=S(=O)([O-])C(F)(F)F [1-butyl-3-methylimidazolium trifluoromethanesulfonate]
attribute measured: mass density
quantitative readout: 1298.9
--
molecule: CCCCCCCC[n+]1ccn(C)c1.F[P-](F)(F)(F)(F)F [1-octyl-3-methylimidazolium hexafluorophosphate]
attribute measured: mass density
quantitative readout: 1236.1
--
molecule: CCCCn1cc[n+](C)c1.F[B-](F)(F)F [1-butyl-3-methylimidazolium tetrafluoroborate]
attribute measured: mass density
quantitative readout: 1200.7

Record mass density per entry; entries follow.
1. CCCCCCn1cc[n+](C)c1.F[P-](F)(F)(F)(F)F [1-hexyl-3-methylimidazolium hexafluorophosphate]
2. CCCCCCCC[n+]1ccn(C)c1.F[B-](F)(F)F [1-methyl-3-octylimidazolium tetrafluoroborate]

1: 1292.7; 2: 1102.6

###

Conditions: 353.15 K; 10000 kPa; Liquid
Would you mind telling me the reported mass density of each entry?
Give bare numbers, in kg/m3.

Consider the following illustrative entries.
compound: CCCCCCCC[n+]1ccn(C)c1.F[P-](F)(F)(F)(F)F [1-octyl-3-methylimidazolium hexafluorophosphate]
mass density, kg/m3: 1200.3
--
compound: CCCCCCn1cc[n+](C)c1.F[P-](F)(F)(F)(F)F [1-hexyl-3-methylimidazolium hexafluorophosphate]
mass density, kg/m3: 1254.2
--
compound: CCCCCCCC[n+]1ccn(C)c1.F[B-](F)(F)F [1-methyl-3-octylimidazolium tetrafluoroborate]
mass density, kg/m3: 1070.3
--
compound: CCCCn1cc[n+](C)c1.O=S(=O)([O-])C(F)(F)F [1-butyl-3-methylimidazolium trifluoromethanesulfonate]
mass density, kg/m3: 1260.7
--
compound: CCCCn1cc[n+](C)c1.F[B-](F)(F)F [1-butyl-3-methylimidazolium tetrafluoroborate]
mass density, kg/m3: 1166.6

Shift focus to the following entry.
Entry CCCCn1cc[n+](C)c1C.F[P-](F)(F)(F)(F)F [1-butyl-2,3-dimethylimidazolium hexafluorophosphate] has what mass density?
1311.1

###

Settings: 313.15 K; 10000 kPa; Liquid
± gives the expanded uncertainty stated by the source.
attribute measured: mass density
Answer with the value and then the unit.

compound: CCCCn1cc[n+](C)c1C.F[P-](F)(F)(F)(F)F [1-butyl-2,3-dimethylimidazolium hexafluorophosphate]
mass density: 1344.6 ± 5 kg/m3
--
compound: CCCCCCn1cc[n+](C)c1.F[P-](F)(F)(F)(F)F [1-hexyl-3-methylimidazolium hexafluorophosphate]
mass density: 1287 ± 4.4 kg/m3
--
compound: CCCCn1cc[n+](C)c1.O=S(=O)([O-])C(F)(F)F [1-butyl-3-methylimidazolium trifluoromethanesulfonate]
mass density: 1293.3 ± 2.4 kg/m3
--
compound: CCCCCCCC[n+]1ccn(C)c1.F[B-](F)(F)F [1-methyl-3-octylimidazolium tetrafluoroborate]
mass density: 1097.9 ± 1.2 kg/m3
--
compound: CCCCn1cc[n+](C)c1.F[B-](F)(F)F [1-butyl-3-methylimidazolium tetrafluoroborate]
mass density: 1195.5 ± 3.3 kg/m3

Now for the compound whose mass density we want.
Please look up its mass density: CCCCCCCC[n+]1ccn(C)c1.F[P-](F)(F)(F)(F)F [1-octyl-3-methylimidazolium hexafluorophosphate]
1231.1 ± 3.7 kg/m3

###

Details: 363.15 K; 1000 kPa; Liquid
attribute measured: mass density (kg/m3)
One number for each entry, in kg/m3.

compound: CCCCCCCC[n+]1ccn(C)c1.F[B-](F)(F)F [1-methyl-3-octylimidazolium tetrafluoroborate]
unit info: kg/m3
mass density: 1059.1
--
compound: CCCCn1cc[n+](C)c1.O=S(=O)([O-])C(F)(F)F [1-butyl-3-methylimidazolium trifluoromethanesulfonate]
unit info: kg/m3
mass density: 1247.5
--
compound: CCCCCCn1cc[n+](C)c1.F[P-](F)(F)(F)(F)F [1-hexyl-3-methylimidazolium hexafluorophosphate]
unit info: kg/m3
mass density: 1241.2

Report mass density for every entry below.
1. CCCCCCCC[n+]1ccn(C)c1.F[P-](F)(F)(F)(F)F [1-octyl-3-methylimidazolium hexafluorophosphate]
2. CCCCn1cc[n+](C)c1.F[B-](F)(F)F [1-butyl-3-methylimidazolium tetrafluoroborate]
3. CCCCn1cc[n+](C)c1C.F[P-](F)(F)(F)(F)F [1-butyl-2,3-dimethylimidazolium hexafluorophosphate]

1: 1186.9; 2: 1155.3; 3: 1298.2

###

Kindly supply the reported mass density values for the records listed here.
Conditions: 393.15 K; 10000 kPa; Liquid
Answers are plain numbers, in kg/m3.

Batch lookup, mass density per entry.
1. CCCCn1cc[n+](C)c1.O=S(=O)([O-])C(F)(F)F [1-butyl-3-methylimidazolium trifluoromethanesulfonate]
2. CCCCCCCC[n+]1ccn(C)c1.F[B-](F)(F)F [1-methyl-3-octylimidazolium tetrafluoroborate]
3. CCCCCCCC[n+]1ccn(C)c1.F[P-](F)(F)(F)(F)F [1-octyl-3-methylimidazolium hexafluorophosphate]

1: 1232.7; 2: 1047.2; 3: 1173.5

Please supply mass density for each of the following items, keeping them in order.
1. CCCCn1cc[n+](C)c1C.F[P-](F)(F)(F)(F)F [1-butyl-2,3-dimethylimidazolium hexafluorophosphate]
2. CCCCn1cc[n+](C)c1.F[B-](F)(F)F [1-butyl-3-methylimidazolium tetrafluoroborate]
3. CCCCCCn1cc[n+](C)c1.F[P-](F)(F)(F)(F)F [1-hexyl-3-methylimidazolium hexafluorophosphate]

1282.6
1141.9
1227
